# Target or system: CDK1/Cyclin E1 (Homo sapiens, UniProt P06493)
# Sequence (P06493 whole entry): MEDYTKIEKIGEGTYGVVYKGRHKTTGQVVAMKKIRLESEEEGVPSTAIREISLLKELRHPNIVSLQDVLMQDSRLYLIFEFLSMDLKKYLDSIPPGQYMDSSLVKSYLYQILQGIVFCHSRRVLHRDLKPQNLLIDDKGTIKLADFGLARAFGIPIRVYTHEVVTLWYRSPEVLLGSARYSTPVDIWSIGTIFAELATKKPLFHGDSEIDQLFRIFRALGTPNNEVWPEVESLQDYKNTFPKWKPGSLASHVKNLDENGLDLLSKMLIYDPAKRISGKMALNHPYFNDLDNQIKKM
# Sequence (P24864 whole entry partner): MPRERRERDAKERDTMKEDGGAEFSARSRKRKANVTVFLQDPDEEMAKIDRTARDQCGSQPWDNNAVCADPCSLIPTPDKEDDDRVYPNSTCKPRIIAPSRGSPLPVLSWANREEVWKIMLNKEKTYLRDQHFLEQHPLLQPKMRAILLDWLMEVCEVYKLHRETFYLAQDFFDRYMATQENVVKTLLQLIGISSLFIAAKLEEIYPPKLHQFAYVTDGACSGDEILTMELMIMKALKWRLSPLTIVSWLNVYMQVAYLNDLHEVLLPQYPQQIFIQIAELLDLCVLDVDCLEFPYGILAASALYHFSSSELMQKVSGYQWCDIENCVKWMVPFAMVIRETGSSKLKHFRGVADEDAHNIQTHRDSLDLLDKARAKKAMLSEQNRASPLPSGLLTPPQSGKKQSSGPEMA
# Assay remarks: NanoBRET live-cell target engagement, CDK1-NanoLuc/Cyclin E1 in HEK-293
# Format: binding
# Run parameters: CDK1/E1; experiment 2; read-out: Inhibition at 10µM (%)
Test readout: inhibition at 10 µM (%)
State just the number; it will be interpreted in %.

// inhibition at 10 µM lookup, key: N#CCNC(=O)c1ccc(-c2ccnc(Nc3ccc(N4CCOCC4)cc3)n2)cc1 [Momelotinib]
7.8

Next up: COc1ccc(F)cc1-c1cc(NC(=O)C2CCCNC2)ncc1Cl (stereo not shown) [CDK inhibitor 2]
82.8

Next up: CN1CC[C@H](c2c(O)cc(O)c3c(=O)cc(-c4ccccc4Cl)oc23)[C@H](O)C1 [Flavopiridol]
78.8

Next up: CN1CCN(c2ccc(Nc3ncc4cc(C#N)c(=O)n(C5CCCC5)c4n3)cc2)CC1 [ON123300]
17.1

Next up: Cn1cc(-c2ccc(-c3cncc(Cl)c3N3CCC4(CCNC4=O)CC3)cc2)cn1 [CCT251545]
9.4

Next up: COc1ccccc1-c1cc(Nc2cccc(CS(N)(=O)=O)c2)ncn1 [LDC000067]
32.5

Next up: CC(C)N1CCN(c2ccc(Nc3ncc4cc5n(c4n3)C3(CCCCC3)CNC5=O)nc2)CC1 [Lerociclib]
3.2

Next up: CNC(=O)c1nn(C)c2c1C(C)(C)Cc1cnc(Nc3ccc(N4CCN(C)CC4)cc3)nc1-2 [Milciclib]
69.2

Next up: CN1CCN(Cc2ccc(NC(=O)Nc3ccc(Oc4ccnc(N)n4)cc3)cc2C(F)(F)F)CC1 [K03861]
74.6

Next up: COC1CN(C(=O)c2ccc3c(N)ncc(-c4ccc(-c5cnn(C)c5)cc4)c3n2)C1 [CCT251545 analog]
13.7

* * *

# Target or system: CDK9/Cyclin K (Homo sapiens, UniProt P50750)
# Sequence (P50750 whole entry): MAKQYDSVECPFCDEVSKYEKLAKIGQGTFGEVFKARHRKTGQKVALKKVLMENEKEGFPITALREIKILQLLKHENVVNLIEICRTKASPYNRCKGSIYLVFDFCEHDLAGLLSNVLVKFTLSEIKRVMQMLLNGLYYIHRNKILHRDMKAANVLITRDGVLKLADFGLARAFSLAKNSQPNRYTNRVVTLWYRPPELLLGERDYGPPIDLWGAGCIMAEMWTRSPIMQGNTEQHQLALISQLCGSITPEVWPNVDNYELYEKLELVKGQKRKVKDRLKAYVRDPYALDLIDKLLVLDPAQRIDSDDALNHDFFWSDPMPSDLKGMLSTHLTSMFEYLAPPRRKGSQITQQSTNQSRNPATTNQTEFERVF
# Sequence (O75909 whole entry partner): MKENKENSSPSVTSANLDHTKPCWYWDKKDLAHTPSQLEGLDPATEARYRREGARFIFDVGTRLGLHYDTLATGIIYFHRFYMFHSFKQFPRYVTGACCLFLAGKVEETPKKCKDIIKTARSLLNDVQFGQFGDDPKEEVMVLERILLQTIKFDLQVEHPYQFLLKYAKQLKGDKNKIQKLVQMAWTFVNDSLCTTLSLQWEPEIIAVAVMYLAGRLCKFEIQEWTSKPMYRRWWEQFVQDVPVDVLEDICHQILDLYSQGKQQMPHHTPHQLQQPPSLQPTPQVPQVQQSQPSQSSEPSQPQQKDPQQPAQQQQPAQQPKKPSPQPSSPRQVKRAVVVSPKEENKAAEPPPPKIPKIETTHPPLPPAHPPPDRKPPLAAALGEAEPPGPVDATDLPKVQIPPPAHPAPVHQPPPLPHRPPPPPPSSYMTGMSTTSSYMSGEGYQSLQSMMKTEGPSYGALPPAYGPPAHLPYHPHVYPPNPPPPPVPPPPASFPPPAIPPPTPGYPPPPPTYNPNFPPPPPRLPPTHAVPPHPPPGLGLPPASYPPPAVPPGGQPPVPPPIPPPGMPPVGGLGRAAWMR
# Assay remarks: NanoBRET live-cell target engagement, NanoLuc-CDK9/Cyclin K in HEK-293
# Assay type: binding
# Run parameters: CDK9/K; 10µM; average of replicates
Assign Inhibition at 10µM (%) Average to each entry below.
State just the number; it will be interpreted in %.

// Inhibition at 10µM (%) Average lookup, key: O=C(Nc1c[nH]nc1-c1ccccn1)c1nn(C2CCNCC2)cc1Cl
20.8

Next up: CCC(CO)Nc1nc(Nc2cccc(-c3ccccn3)c2)c2ncn(C(C)C)c2n1.Cl.O [(R) - DRF053]
23.2

Next up: CNC1CCN(C(=O)c2ccc(Nc3ncc(F)c(-c4cnc(C)n4C(C)C)n3)cc2)C1 (stereo not shown)
99.5

Next up: CC(C)c1cnn2c(NCc3ccccc3)cc(N[C@@H](CO)[C@H](O)CO)nc12
98.5

* * *

# Target or system: CDK15/Cyclin Y (Homo sapiens, UniProt Q96Q40)
# Sequence (Q96Q40 whole entry): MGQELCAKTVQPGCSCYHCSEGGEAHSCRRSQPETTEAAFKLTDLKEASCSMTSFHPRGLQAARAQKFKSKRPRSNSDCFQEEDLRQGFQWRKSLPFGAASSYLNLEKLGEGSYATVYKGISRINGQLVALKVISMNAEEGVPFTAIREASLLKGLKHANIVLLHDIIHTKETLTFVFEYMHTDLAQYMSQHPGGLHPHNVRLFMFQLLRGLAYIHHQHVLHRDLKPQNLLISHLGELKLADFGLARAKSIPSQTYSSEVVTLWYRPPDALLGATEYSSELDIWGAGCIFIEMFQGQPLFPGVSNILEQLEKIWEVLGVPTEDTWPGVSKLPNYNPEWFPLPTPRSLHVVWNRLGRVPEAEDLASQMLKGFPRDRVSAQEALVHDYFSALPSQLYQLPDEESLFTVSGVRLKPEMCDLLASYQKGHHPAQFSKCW
# Sequence (Q8ND76 whole entry partner): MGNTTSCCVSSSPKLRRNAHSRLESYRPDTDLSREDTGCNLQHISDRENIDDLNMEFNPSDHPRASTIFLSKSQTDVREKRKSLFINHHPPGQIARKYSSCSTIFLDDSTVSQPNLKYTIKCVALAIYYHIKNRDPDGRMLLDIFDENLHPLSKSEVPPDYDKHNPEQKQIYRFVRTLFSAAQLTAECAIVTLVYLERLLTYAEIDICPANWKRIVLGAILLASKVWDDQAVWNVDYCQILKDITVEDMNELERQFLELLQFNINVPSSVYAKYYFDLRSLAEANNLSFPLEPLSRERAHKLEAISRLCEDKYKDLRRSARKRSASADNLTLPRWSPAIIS
# Assay remarks: NanoBRET live-cell target engagement, NanoLuc-CDK15/Cyclin Y in HEK-293
# Assay type: binding
# Run parameters: independent experiment 2; read-out: CDK15/Y IC50
Test readout: pIC50
pIC50 is a log-scale quantity: -log10 of the concentration expressed in molar.

What reported pIC50 corresponds to COCCN1CCN(Cc2ccc(-c3n[nH]c4c3C(=O)c3c(NC(=O)NN5CCOCC5)cccc3-4)cc2)CC1 on CDK15/Cyclin Y (Homo sapiens, UniProt Q96Q40)?
7.89

Next up: CN1C/C=C/CCOc2cccc(c2)-c2ccnc(n2)Nc2cccc(c2)C1
7.21
